System: KB cells
Method Description: Suppression of KB cell proliferation in vitro
Assay type: cell-based
Test Settings: Homo sapiens, 72 h, 3 days exposure, Trypan Blue dye-exclusion, read-out: KB IC50 (50% inhibition density to tumor cell proliferation)
Value Type: IC50 (µg/mL)

>>> df
                               smiles_input  number
0  CC(C)[Si](C)(C)CCCSCCNC(=O)n1cc(F)c(=O)[nH]c1=O      15
1  CC(C)[Si](C)(C)CCSCCNC(=O)n1cc(F)c(=O)[nH]c1=O       4
2  C[Si](C)(CCSCCNC(=O)n1cc(F)c(=O)[nH]c1=O)c1ccccc1      12
